System: cocklebur (Xanthium strumarium)
EXPERIMENT: Test C preemergence
Assay type: in vivo
ASSAY SETUP: Rate 125 g/ha; scale 0 to 100, 0 no effect, 100 complete control
The reader will find reported Plant response rating, Cocklebur values listed item by item below.
READOUT NAME: Plant response rating, Cocklebur

>>> recorded_result("CCC(CC)c1ccn(C2CCN(c3cccc(OC(C)C)c3)C2=O)n1 (stereo not shown)")
0
>>> recorded_result("CC(C)OC(=O)c1cccc(N2CCC(n3ccc(C(C)(C)C)n3)C2=O)c1 (stereo not shown)")
0
>>> recorded_result("CC(C)(C)c1ccn(C2CCN(c3cccc(OC(F)F)c3)C2=O)n1 (stereo not shown)")
0
>>> recorded_result("CC(C)(C)c1ccn(C2CCN(c3ccc(F)c(Br)c3)C2=O)n1 (stereo not shown)")
0
>>> recorded_result("CCC(CC)c1ccn(C2CCN(c3ccc(Br)c(OC)c3)C2=O)n1 (stereo not shown)")
50
>>> recorded_result("CC(C)(C)c1ccn(C2OCN(c3cccc(OC(F)F)c3)C2=O)n1 (stereo not shown)")
0
>>> recorded_result("CCC(C)c1ccn(C2CCN(c3ccc(Br)c(OC)c3)C2=O)n1 (stereo not shown)")
30

###

System: cocklebur (Xanthium strumarium)
EXPERIMENT: Test B postemergence
Type: in vivo
ASSAY SETUP: Rate 125 g/ha, scale 0 (no effect) to 100 (complete control), 13 to 15 days
READOUT NAME: Plant response rating, Cocklebur

>>> recorded_result("CCC(C)c1ccn(C2SCN(c3cccc(OC(F)(F)F)c3)C2=O)n1 (stereo not drawn) [Compound 40]")
30
>>> recorded_result("CC1(c2ccn(C3SCN(c4cccc(OC(F)(F)F)c4)C3=O)n2)CC1 (stereo not drawn) [Compound 63]")
0
>>> recorded_result("CCC(CC)c1ccn(C2SCN(c3cccc(C(F)(F)F)c3)C2=O)n1 (stereo not drawn) [Compound 25]")
60
>>> recorded_result("CC(C)(C)c1ccn(C2CCN(c3cccc(OC(F)F)c3)C2=O)n1 (stereo not drawn) [Compound 76]")
0
>>> recorded_result("Cc1cc(N2CCC(n3ccc(C(C)(C)C)n3)C2=O)ccc1Cl (stereo not drawn) [Compound 53]")
0
>>> recorded_result("CC(C)(C)c1ccn(C2SCN(c3cccc(C(F)(F)F)c3)C2=O)n1 (stereo not drawn) [Compound 1]")
60
>>> recorded_result("Cc1c(Cl)cc(N2CCC(n3ccc(C(C)(C)C)n3)C2=O)cc1Cl (stereo not drawn) [Compound 74]")
0
>>> recorded_result("CC(C)(C)c1ccn(C2CCN(c3cccc(OC(F)(F)C(F)F)c3)C2=O)n1 (stereo not drawn) [Compound 48]")
0
>>> recorded_result("Cc1ccn(C2SCN(c3cccc(C(F)(F)F)c3)C2=O)n1 (stereo not drawn) [Compound 19]")
20

###

Attribute: Plant response rating, Nutsedge
System: yellow nutsedge (Cyperus esculentus)
EXPERIMENT: Test C preemergence
Format: in vivo
ASSAY SETUP: Rate 125 g/ha; scale 0 to 100, 0 no effect, 100 complete control
READOUT NAME: Plant response rating, Nutsedge

>>> recorded_result("CCCOc1cc(N2CCC(n3ccc(C(C)(C)C)n3)C2=O)ccc1C (stereo not drawn)")
0
>>> recorded_result("CCC(CC)c1ccn(C2CCN(c3ccc(F)c(C(F)(F)F)c3)C2=O)n1 (stereo not drawn)")
0
>>> recorded_result("CCC(CC)c1ccn(C2CCN(c3cccc(OC)c3)C2=O)n1 (stereo not drawn)")
0
>>> recorded_result("CC(C)(C)c1ccn(C2CCN(c3cccc(SC(F)(F)F)c3)C2=O)n1 (stereo not drawn)")
0
>>> recorded_result("COc1cc(N2CCC(n3ccc(C(C)(C)C)n3)C2=O)ccc1Cl (stereo not drawn)")
0
>>> recorded_result("CCC(C)c1ccn(C2CCN(c3ccc(F)c(C(F)(F)F)c3)C2=O)n1 (stereo not drawn)")
0
>>> recorded_result("CCCC(C)c1ccn(C2CCN(c3cccc(C(F)(F)F)c3)C2=O)n1 (stereo not drawn)")
0
>>> recorded_result("CCC(C)c1ccn(C2CCN(c3ccc(Cl)c(OC)c3)C2=O)n1 (stereo not drawn)")
20
>>> recorded_result("CCC(C)c1ccn(C2CCN(c3ccc(C)c(OC)c3)C2=O)n1 (stereo not drawn)")
20

###

Test system: rice (Oryza saliva)
EXPERIMENT: Test C flooded paddy test
Assay type: in vivo
ASSAY SETUP: Flooded Paddy; Rate 500 g/ha; scale 0 to 100, 0 no effect, 100 complete control
READOUT NAME: Rice plant response rating

>>> recorded_result("CC(C)(C)c1ccn(C2CCN(c3ccc(F)c(Br)c3)C2=O)n1 (stereo not drawn)")
40
>>> recorded_result("O=C1C(n2ccc(C3CC3)n2)SCN1c1cccc(C(F)(F)F)c1 (stereo not drawn)")
80
>>> recorded_result("CCCCC(C)c1ccn(C2SCN(c3cccc(C(F)(F)F)c3)C2=O)n1 (stereo not drawn)")
20
>>> recorded_result("O=C1C(n2ccc(C3CCCCC3)n2)SCN1c1cccc(OC(F)(F)F)c1 (stereo not drawn)")
50
>>> recorded_result("CC1(c2ccn(C3OCN(c4cccc(C(F)(F)F)c4)C3=O)n2)CC1 (stereo not drawn)")
50
>>> recorded_result("COc1cc(N2CCC(n3ccc(C(C)C)n3)C2=O)ccc1Cl (stereo not drawn)")
80
>>> recorded_result("COc1cccc(N2CCC(n3ccc(C(C)(C)C)n3)C2=O)c1 (stereo not drawn)")
80
>>> recorded_result("CCC(CC)c1ccn(C2SCN(c3cccc(C(F)(F)F)c3)C2=O)n1 (stereo not drawn)")
80
>>> recorded_result("CC(C)(C)c1ccn(C2CCN(c3ccc(F)c(Cl)c3)C2=O)n1 (stereo not drawn)")
40

###

Test system: soybean (Glycine max)
EXPERIMENT: Test C preemergence
Assay type: in vivo
ASSAY SETUP: preemergence; Rate 250 g/ha; scale 0 to 100, 0 no effect, 100 complete control
Measured Plant response rating, Soybean by item
READOUT NAME: Plant response rating, Soybean

>>> recorded_result("CCCC(C)c1ccn(C2OCN(c3cccc(C(F)(F)F)c3)C2=O)n1 (stereo not drawn) [Compound 89]")
0
>>> recorded_result("CCC(CC)c1ccn(C2CCN(c3ccc(C)c(OC)c3)C2=O)n1 (stereo not drawn) [Compound 81]")
100
>>> recorded_result("Cc1ccc(N2CCC(n3ccc(C(C)(C)C)n3)C2=O)cc1I (stereo not drawn) [Compound 122]")
0
>>> recorded_result("CCC(C)c1ccn(C2CCN(c3cccc(OC(C)C)c3)C2=O)n1 (stereo not drawn) [Compound 83]")
0
>>> recorded_result("CCC(C)c1ccn(C2CCN(c3ccc(C)c(OC)c3)C2=O)n1 (stereo not drawn) [Compound 80]")
50
>>> recorded_result("CC(C)(C)c1ccn(C2CCN(c3ccc(F)c(Br)c3)C2=O)n1 (stereo not drawn) [Compound 75]")
0
>>> recorded_result("COc1cc(N2CCC(n3ccc(C(C)C)n3)C2=O)ccc1C (stereo not drawn) [Compound 85]")
40
>>> recorded_result("COc1cc(N2CCC(n3ccc(C(C)C)n3)C2=O)ccc1Br (stereo not drawn) [Compound 140]")
100
>>> recorded_result("CCCC(C)c1ccn(C2CCN(c3ccc(Cl)c(OC)c3)C2=O)n1 (stereo not drawn) [Compound 121]")
90
>>> recorded_result("CC(C)Oc1cccc(N2CCC(n3ccc(C(C)C)n3)C2=O)c1 (stereo not drawn) [Compound 82]")
30
>>> recorded_result("CC(C)(C)c1ccn(C2CCN(c3cccc(SC(F)(F)F)c3)C2=O)n1 (stereo not drawn) [Compound 93]")
0
>>> recorded_result("CCC(C)c1ccn(C2OCN(c3cccc(OC(F)F)c3)C2=O)n1 (stereo not drawn) [Compound 134]")
0

###

Below, each entry is listed with its recorded Plant response rating, Crabgrass.
System: crabgrass (Digitaria sanguinalis)
EXPERIMENT: Test C postemergence
Assay type: in vivo
ASSAY SETUP: Rate 250 g/ha, scale 0 to 100 (0 no effect, 100 complete control)
READOUT NAME: Plant response rating, Crabgrass

>>> recorded_result("O=C1C(n2ccc(C3CCC3)n2)SCN1c1cccc(C(F)(F)F)c1 (centres unmarked)")
0
>>> recorded_result("CCCC(C)c1ccn(C2CCN(c3ccc(Cl)c(OC)c3)C2=O)n1 (centres unmarked)")
40
>>> recorded_result("CC(C)(C)c1ccn(C2SCN(c3cccc(OC(F)(F)F)c3)C2=O)n1 (centres unmarked)")
30
>>> recorded_result("CCCOc1cc(N2CCC(n3ccc(C(C)(C)C)n3)C2=O)ccc1C (centres unmarked)")
0
>>> recorded_result("CCC(CC)c1ccn(C2OCN(c3cccc(OC(F)F)c3)C2=O)n1 (centres unmarked)")
80

###

Test system: morningglory (Ipomoea hederacea)
EXPERIMENT: Test C preemergence
Type: in vivo
ASSAY SETUP: preemergence; Rate 125 g/ha; scale 0 to 100, 0 no effect, 100 complete control
READOUT NAME: Plant response rating, Morningglory

>>> recorded_result("COc1cc(OC)cc(N2CCC(n3ccc(C(C)(C)C)n3)C2=O)c1 (centres unmarked) [Compound 71]")
0
>>> recorded_result("CC1(c2ccn(C3SCN(c4cccc(OC(F)(F)F)c4)C3=O)n2)CC1 (centres unmarked) [Compound 63]")
20
>>> recorded_result("CCC(C)c1ccn(C2SCN(c3cccc(OC(F)(F)F)c3)C2=O)n1 (centres unmarked) [Compound 32]")
40
>>> recorded_result("CC(C)(C)c1ccn(C2CCN(c3cccc(Cl)c3)C2=O)n1 (centres unmarked) [Compound 43]")
0
>>> recorded_result("O=C1C(n2ccc(C3CC3)n2)CCN1c1cccc(C(F)(F)F)c1 (centres unmarked) [Compound 8]")
30
